System: PC-3 cells
experiment-notes: MTT cell viability assay in PC-3 cells
Type: cell-based
setup-conditions: Homo sapiens, PC-3; MTT; read-out: EC50 growth inhibition
observable: EC50

Recorded EC50 for CC[C@H](N)C(=O)N[C@H](C(=O)N1CCC[C@H]1C(=O)NC(c1ccccc1)c1ccccc1)c1ccccc1 , please?
120 to 130 µM

Recorded EC50 of CC[C@H](N)C(=O)N[C@H](C(=O)N1CCC[C@H]1C(=O)NC(c1ccccc1)c1ccccc1)C1CCCCC1.Cl , please.
120 to 130 µM

Give the measured EC50 of C[C@H](N)C(=O)N[C@H](C(=O)N1CCC[C@H]1C(=O)NC(c1ccccc1)c1ccccc1)c1ccccc1 .
120 to 130 µM

----------
system: human XIAP-BIR3 protein (residues 241-356) (Homo sapiens, UniProt P98170)
experiment-notes: biochemical
Square brackets hold non-standard residues; d marks the D form. Peptide text beside a SMILES is read from it. Abu = CC[C@H](N)C(=O)O
observable: Ki

Example results:
>  <molecule>
CC(C)[C@H](NC(=O)[C@H](C)N)C(=O)N1CCC[C@@H]1CNCc1ccccc1

>  <observable>
Ki

>  <observed-measurement>
> 200000 nM

$$$$
>  <molecule>
C[C@H](N)C(=O)N[C@H](C(=O)N1CCC[C@H]1C(=O)NC(c1ccccc1)c1ccccc1)c1ccccc1

>  <observable>
Ki

>  <observed-measurement>
10400 nM

$$$$
>  <molecule>
COc1cccc(CNC(=O)[C@@H]2CCCN2C(=O)[C@@H](NC(=O)[C@H](C)N)C(C)C)c1

>  <observable>
Ki

>  <observed-measurement>
2920 nM

$$$$
>  <molecule>
CC(C)[C@H](NC(=O)[C@H](C)N)C(=O)N1CCC[C@H]1C(=O)NCc1cccc(Cl)c1

>  <observable>
Ki

>  <observed-measurement>
1420 nM

$$$$
>  <molecule>
CC[C@H](N)C(=O)N[C@@H](CCCNC(=N)N)C(=O)N1CCC[C@H]1C(=O)N[C@@H](Cc1ccccc1)C(=O)N[C@@H](CCCCN)C(=O)O [SM5, AbuRPFK, reference compound] (H-[Abu]RPFK-OH; N-terminus and C-terminus assumed)

>  <observable>
Ki

>  <observed-measurement>
75 nM

$$$$

Look at this molecule and give its reported Ki. Cc1ccccc1CNC(=O)[C@@H]1CCCN1C(=O)[C@@H](NC(=O)[C@H](C)N)C(C)C
540 nM

What does the record list as Ki for CC[C@H](N)C(=O)N[C@H](C(=O)N1CCC[C@H]1C(=O)N[C@@H](c1ccccc1)c1ccc(CCCOC)cc1)C(C)C ?
100 nM

----------
system: human XIAP-BIR3 protein (residues 241-356) (Homo sapiens, UniProt P98170)
experiment-notes: biochemical
Peptide text beside a SMILES is read from it. * marks the point of attachment. NHPr = CCCN*
Quick reference for Ki among some compounds
# do not omit the unit; it follows the number

Here is how some compounds turned out for Ki.
>  <compound>
CCCNC(=O)[C@@H]1CCCN1C(=O)[C@@H](NC(=O)[C@H](C)N)C(C)C [CJ-453] (H-Ala-Val-Pro-NHPr)

>  <Ki>
49.2 µM

$$$$
>  <compound>
COc1ccccc1CNC(=O)[C@@H]1CCCN1C(=O)[C@@H](NC(=O)[C@H](C)N)C(C)C

>  <Ki>
3.88 µM

$$$$

Query compound follows.
May I ask what Ki has been recorded for CC(C)[C@H](NC(=O)[C@H](C)N)C(=O)N1CCC[C@H]1C(=O)NCc1ccc(Cl)cc1 ?
0.97 µM

Where do the numbers come from? From patent US20100093645A1.
